Where these numbers come from: PubChem BioAssay

experiment-summary: E. coli acrAB mutant growth effects, primary screen, E. coli filamentation inducers, strain DRC39, OD650, 48 h (AID 1179);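 also: screen aims at cell division blockers that make cells filament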
run-parameters: E. coli DRC39 delta-acrAB growth, higher = more signal, called active from +8 up or from −8 down
Classes (z-score): c1 = under -0.1, c2 = from -0.1 up to 0.5, c3 = 0.5 and over

| molecule | cat |
| --- | --- |
| CN1C(=O)C2C=CC(C(O)c3cc(C(F)(F)F)cc(C(F)(F)F)c3)N(Nc3ccccc3)C2C1=O (centres undefined) | c1 |
| CCCC=C(CCC)[C@@H](NS(=O)(=O)c1cccc2cccnc12)c1ccc(-c2ccccc2)cc1 | c1 |
| COCC1C2CC[C@H]3C(OCc4ccc(OC)cc4)OC[C@]4(C)[C@H]3C2=C(CN4C(=O)OC(C)(C)C)[C@H](C)C1COC (some centres undefined) | c2 |
| NC(=O)N1C(=O)C2C(C1=O)C1C=C(CCCO)C2C(C2CC2)N1Cc1cccc(OC(F)(F)F)c1 (centres undefined) | c1 |
| Cc1ccc(S[C@]2(C(=O)NCc3ccccc3)CC(=O)N(Cc3cc(C(F)(F)F)cc(C(F)(F)F)c3)[C@@H]2c2ccc(CO)cc2I)cc1 | c3 |
| CCCNC(=O)[C@@]1(Sc2ccc(C)cc2)CC(=O)N(C2CCCCC2)[C@@H]1c1ccc(CO)cc1I | c2 |
| COc1cc2c(cc1OC)CN(C(=O)[C@@H]1[C@H]3C(=O)O[C@H](c4ccccc4)[C@H](c4ccccc4)N3[C@H](c3ccc(O)cc3)[C@@]13C(=O)Nc1ccc(C#CCCO)cc13)CC2 | c2 |
| C=CCC(OC(C)=O)[C@@H]1[C@@H](N(Cc2ccc(-c3cccc(C(F)(F)F)c3)o2)C(=O)c2ccc(C)cc2)c2cc(OCCCO)ccc2N1C(=O)Cc1ccc(OC)cc1 (some centres undefined) | c3 |
| CCOC(=O)C[C@H]1[C@H](OC(=O)c2ccc(C(=O)c3ccccc3)cc2)[C@@H](NC(=O)CC(C)C)c2cc(OCCCO)ccc2N1C(=O)Cc1ccc(OC)cc1 | c2 |
| C=C(/C(=C/C[C@H](OC(=O)c1ccncc1)c1cccc(OCCO)c1)c1cnc2ccccc2c1)C(C)C | c1 |
| O=C1C2C=CC(C(O)c3cc(C(F)(F)F)cc(C(F)(F)F)c3)N(Nc3ccccc3F)C2C(=O)N1c1ccccc1 (centres undefined) | c1 |
| C[C@]1(C(=O)NCCN2CCOCC2)c2ccccc2C(=O)N(Cc2cc(F)cc(C(F)(F)F)c2)[C@H]1c1ccc(CO)cc1 | c3 |
